# Tested on: SNB-75
# ASSAY_NAME: NCI tumour cell line growth inhibition, 48 h
The source made the active and inactive calls. Rule as the data show it: active = GI50 up to about 1.1 µM and inactive = higher.
Quick reference for GI50 among some molecules

Query string: So what's the measured GI50 for this one? COc1cc(Cc2cnc(N)nc2N)cc(OC)c1OCCCNc1ccc([N+](=O)[O-])cc1
Result string: 16.2 µM (inactive)

Query string: So what's the measured GI50 for this one? O=C(NN=C1NCCCN1)c1ccco1
Result string: > 100 µM (inactive)

Query string: So what's the measured GI50 for this one? N#CC(/C(CCCC(=O)Nc1cccc([N+](=O)[O-])c1)=N/NC(=O)c1cc2ccccc2cc1O)c1ccccc1 (stereo not given)
Result string: > 100 µM (inactive)

Query string: So what's the measured GI50 for this one? CC(C)C1C(=O)NC(CO)Cc2c[nH]c3c(C(c4c[nH]c5ccccc45)C(O)CO)ccc(c23)N1C (stereo not given)
Result string: 84.9 µM (inactive)

Query string: So what's the measured GI50 for this one? COc1ccc2[nH]c3c(c2c1)[C@H](C)C[C@@H]1C(=O)N(c2ccccc2)C(=O)[C@H]31
Result string: 21.4 µM (inactive)

New cases:
Query string: So what's the measured GI50 for this one? COc1ccc(-c2nc(N)c(C#N)c3c2CCSc2ccc(C)cc2-3)cc1OC
Result string: 10.7 µM (inactive)

Query string: So what's the measured GI50 for this one? CC1=C(CO)C(=O)O[C@@H]([C@@H](C)[C@H]2CC[C@H]3[C@@H]4C[C@H]5O[C@]56[C@@H](O)C=CC(=O)[C@]6(C)[C@H]4CC[C@]23C)C1
Result string: 4.11 µM (inactive)

Query string: So what's the measured GI50 for this one? CC(=O)OC[C@@H](OC(C)=O)[C@H](OC(C)=O)[C@@H]1OC(C)(C)O[C@@H]1C1SCCCS1
Result string: > 100 µM (inactive)

Query string: So what's the measured GI50 for this one? c1ccc(P2c3ccccc3Nc3ccccc32)cc1
Result string: 11.4 µM (inactive)

Query string: So what's the measured GI50 for this one? Cc1cc(C)c(C2=NOC(c3ccccc3)(c3cc(=O)n(-c4ccccc4)s3)O2)c(C)c1 (stereo not given)
Result string: 26.5 µM (inactive)

Query string: So what's the measured GI50 for this one? Oc1[nH]c(Nc2cccc(Br)c2)nc2ncnc1-2
Result string: 57.7 µM (inactive)

Query string: So what's the measured GI50 for this one? N#Cc1c(Cl)cc(C#N)n2c1nc1ccccc12
Result string: 19.2 µM (inactive)

Query string: So what's the measured GI50 for this one? Nc1nc(Cl)cc(OCC2(CO)CC=CC2)n1
Result string: 27.1 µM (inactive)

Query string: So what's the measured GI50 for this one? CCOc1ccc(-n2nnc3c(N)nc(N)nc32)cc1
Result string: > 100 µM (inactive)

Query string: So what's the measured GI50 for this one? O=C(C#Cc1cnc(O)nc1O)c1ccccc1
Result string: 18.2 µM (inactive)

Query string: So what's the measured GI50 for this one? CC(=O)Nc1ccc(-c2nc3ccccc3s2)cc1O
Result string: 24.8 µM (inactive)

Query string: So what's the measured GI50 for this one? C=CCC(OCCOCC)c1cc(OCCOCC)ccc1OC (stereo not given)
Result string: > 100 µM (inactive)

Query string: So what's the measured GI50 for this one? Cc1[nH]c(=O)[nH]c(=S)c1C(=O)NC(C)(CO)CO
Result string: > 100 µM (inactive)

Query string: So what's the measured GI50 for this one? O=C(/N=C(/Nc1ccccc1)SCCS/C(=N\C(=O)c1ccccc1)Nc1ccccc1)c1ccccc1
Result string: 29.5 µM (inactive)

Query string: So what's the measured GI50 for this one? O=C(c1ccccc1)[C@H]1Nc2ccc(Cl)cc2[C@H]2c3ccccc3O[C@H]21
Result string: 12.4 µM (inactive)

Source of measurements: ChEMBL document CHEMBL1201862
